# System: velvetleaf
# Assay comment: Test B pre/postemergence velvetleaf
# Format: in vivo, Abutilon theophrasti
# Measurement context: Rate 250 g/ha, Postemergence; scale 0 to 10, 0 is no effect, 10 is complete control
Reported Plant response rating, Velvetleaf is given for each of the following compounds.
Response field accepts a number only; no unit should be typed.

Example results:
>  <Compound>
CC(C)N(C(=O)n1oc(=O)n(C(C)c2ccccc2)c1=O)c1ccc(Cl)cc1 (centres unmarked)

>  <Measured on>
velvetleaf

>  <Value kind>
Plant response rating, Velvetleaf

>  <Meas value>
2

$$$$
>  <Compound>
CC(C)N(C(=O)n1oc(=O)n(C(C)(C)C)c1=O)c1ccccc1

>  <Measured on>
velvetleaf

>  <Value kind>
Plant response rating, Velvetleaf

>  <Meas value>
0

$$$$
>  <Compound>
C=CCn1c(=O)on(C(=O)N(c2ccc(F)cc2)C(C)C)c1=O

>  <Measured on>
velvetleaf

>  <Value kind>
Plant response rating, Velvetleaf

>  <Meas value>
6

$$$$
>  <Compound>
CN(C(=O)n1oc(=O)n(Cc2ccccc2)c1=O)c1ccccc1

>  <Measured on>
velvetleaf

>  <Value kind>
Plant response rating, Velvetleaf

>  <Meas value>
0

$$$$

Could you now consider this next compound?
Value lookup for Plant response rating, Velvetleaf; key = `COc1ccccc1Cn1c(=O)on(C(=O)N(c2ccc(F)cc2)C(C)C)c1=O`
2

###

# Test system: crabgrass
# Assay comment: Test B pre/postemergence crabgrass
# Assay type: in vivo, Digitaria sanguinalis
# Measurement context: Rate 500 g/ha, Preemergence; scale 0 to 10 (0 no effect, 10 complete control)
Value kind: Crabgrass plant response rating

Example results:
>  <Compound>
CCOP(=O)(Cn1c(=O)on(C(=O)N(c2ccc(F)cc2F)C(C)C)c1=O)OCC

>  <Crabgrass plant response rating>
9

$$$$
>  <Compound>
CC(C)N(C(=O)n1oc(=O)n(CC2=NOCCO2)c1=O)c1ccc(F)cc1F

>  <Crabgrass plant response rating>
10

$$$$
>  <Compound>
COc1ccc(N(C(=O)n2oc(=O)n(C(C)C)c2=O)C(C)C)cc1

>  <Crabgrass plant response rating>
10

$$$$
>  <Compound>
CC(C)N(C(=O)n1oc(=O)n(C(C)C(=S)N(C)C)c1=O)c1ccc(Cl)cc1 (centres unmarked)

>  <Crabgrass plant response rating>
9

$$$$

Could you now consider this next compound?
Value lookup for Crabgrass plant response rating; key = `CC(C)N(C(=O)n1oc(=O)n(CC2=NOCCO2)c1=O)c1ccc(F)cc1`
10

###

# Tested on: surinam grass
# Assay comment: Test B pre/postemergence surinam grass
# Type: in vivo, Brachiaria decumbens
# Measurement context: Preemergence, Rate 500 g/ha; scale of 0 to 10 where 0 is no effect and 10 is complete control
# Protocol: […] At the same time, these crop and weed species were also treated with postemergence applications of test chemicals formulated in the same manner. […] Treated plants and controls were maintained in a greenhouse for twelve to sixteen days, after which all species were compared to controls and visually evaluated. […]
Value kind: B. signalgrass plant response rating
Response field accepts a number only; no unit should be typed.

>  <Compound>
CC(C)N(C(=O)n1oc(=O)n(N2CCOCC2)c1=O)c1ccc(F)cc1F

>  <B. signalgrass plant response rating>
7

$$$$

Value lookup for B. signalgrass plant response rating; key = Cc1nc(Cl)sc1C(C)n1c(=O)on(C(=O)N(c2ccccc2)C(C)C)c1=O (stereo not shown)
0

Value lookup for B. signalgrass plant response rating; key = CCOC(=O)C(C)N(C(=O)n1oc(=O)n(C(C)C)c1=O)c1ccc(F)cc1 (stereo not shown)
3

Value lookup for B. signalgrass plant response rating; key = `C=C[Si](C)(C)Cn1c(=O)on(C(=O)N(c2ccc(Cl)cc2)C(C)C)c1=O`
9

###

Reported B. signalgrass plant response rating is given for each of the following compounds.
# Test system: surinam grass
# Assay comment: Test B pre/postemergence surinam grass
# Format: in vivo, Brachiaria decumbens
# Measurement context: Preemergence, Rate 62 g/ha; scale of 0 to 10 where 0 is no effect and 10 is complete control
Response field accepts a number only; no unit should be typed.

Example results:
>  <Compound structure>
CC(C)N(C(=O)n1oc(=O)n(CC(C)(C)C)c1=O)c1ccccc1

>  <Measured on>
surinam grass

>  <B. signalgrass plant response rating>
4

$$$$
>  <Compound structure>
CC(C)N(C(=O)n1oc(=O)n(C2CC2)c1=O)c1ccc(F)cc1F

>  <Measured on>
surinam grass

>  <B. signalgrass plant response rating>
6

$$$$

Under surinam grass: B. signalgrass plant response rating value of `CC(C)N(C(=O)n1oc(=O)n(Cc2nnc(Cl)s2)c1=O)c1ccc(F)cc1F` ?
0

Under surinam grass: B. signalgrass plant response rating value of `CC(Cl)=CCn1c(=O)on(C(=O)N(c2ccc(F)cc2)C(C)C)c1=O` ?
2

###

Reported Plant response rating, Sugarbeets is given for each of the following compounds.
# Test system: sugar beet
# Assay comment: Test B pre/postemergence sugar beet
# Assay type: in vivo, Beta vulgaris
# Measurement context: Rate 250 g/ha, Postemergence; scale 0 to 10, 0 is no effect, 10 is complete control
Response field accepts a number only; no unit should be typed.

Example results:
>  <Compound>
CN(C(=O)n1oc(=O)n(Cc2ccccc2)c1=O)c1ccccc1 [Compound 153]

>  <Measured on>
sugar beet

>  <Meas value>
0

$$$$
>  <Compound>
CC(C)N(C(=O)n1oc(=O)n(C)c1=O)c1ccc(Cl)cc1 [Compound 137]

>  <Measured on>
sugar beet

>  <Meas value>
5

$$$$
>  <Compound>
Cc1ccc(N(C(=O)n2oc(=O)n(C(C)C)c2=O)C(C)C)cc1 [Compound 132]

>  <Measured on>
sugar beet

>  <Meas value>
0

$$$$

Could you now consider this next compound?
Value lookup for Plant response rating, Sugarbeets; key = CC(C)N(C(=O)n1oc(=O)n(Cc2ccccc2)c1=O)c1ccccc1 [Compound 94]
2

###

# System: velvetleaf
# Assay comment: Test B pre/postemergence velvetleaf
# Format: in vivo, Abutilon theophrasti
# Measurement context: Rate 500 g/ha, Postemergence; scale 0 to 10, 0 no effect, 10 complete control
Reported Velvetleaf plant response rating is given for each of the following compounds.

>  <Compound>
CC(C)N(C(=O)n1oc(=O)n(CC(C)(C)C)c1=O)c1ccccc1 [Compound 276]

>  <Value kind>
Velvetleaf plant response rating

>  <Meas value>
0

$$$$
>  <Compound>
Cc1cccc(C(C)C)c1-n1c(=O)on(C(=O)N(c2ccccc2)C(C)C)c1=O [Compound 66]

>  <Value kind>
Velvetleaf plant response rating

>  <Meas value>
2

$$$$

Value lookup for Velvetleaf plant response rating; key = Cc1noc(C)c1Cn1c(=O)on(C(=O)N(c2ccc(F)cc2)C(C)C)c1=O [Compound 259]
1

Value lookup for Velvetleaf plant response rating; key = CC(C)N(C(=O)n1oc(=O)n(C(C)C)c1=O)c1ccc(F)cc1F [Compound 109]
6

Value lookup for Velvetleaf plant response rating; key = CCN(C(=O)n1oc(=O)n(C)c1=O)C1CCCCC1 [Compound 228]
0

###

Reported Plant response rating, Blackgrass is given for each of the following molecules.
# Tested on: blackgrass
# Assay comment: Test B pre/postemergence blackgrass
# Type: in vivo, Alopecurus myosuroides
# Measurement context: Postemergence, Rate 250 g/ha; scale 0 to 10, 0 is no effect, 10 is complete control
Response field accepts a number only; no unit should be typed.

>  <Molecule>
CC(C)N(C(=O)n1oc(=O)n(C(CF)CF)c1=O)c1ccccc1 [Compound 421]

>  <Plant response rating, Blackgrass>
8

$$$$
>  <Molecule>
CC(C)N(C(=O)n1oc(=O)n(C(CF)CF)c1=O)c1ccc(F)cc1 [Compound 390]

>  <Plant response rating, Blackgrass>
9

$$$$
>  <Molecule>
CC(C)N(C(=O)n1oc(=O)n(C2(C)CC2)c1=O)c1ccc(F)cc1 [Compound 362]

>  <Plant response rating, Blackgrass>
8

$$$$

Could you now consider this next molecule?
Value lookup for Plant response rating, Blackgrass; key = CC(C)N(C(=O)n1oc(=O)n(CC2CCC2)c1=O)c1ccc(F)cc1 [Compound 403]
10

###

# System: corn
# Assay comment: Test B pre/postemergence corn
# Format: in vivo, Zea mays
# Measurement context: Rate 500 g/ha, Postemergence; scale 0 to 10, 0 is no effect, 10 is complete control
Reported Corn plant response rating is given for each of the following molecules.
Response field accepts a number only; no unit should be typed.

Value lookup for Corn plant response rating; key = `CC(C)N(C(=O)n1oc(=O)n(CCCCCl)c1=O)c1ccc(F)cc1`
0

###

# Test system: surinam grass
# Assay comment: Test B pre/postemergence surinam grass
# Type: in vivo, Brachiaria decumbens
# Measurement context: Rate 500 g/ha, Postemergence; scale 0 to 10, 0 is no effect, 10 is complete control
Value kind: B. signalgrass plant response rating

Example results:
>  <Molecule>
COc1ccc(N(C(=O)n2oc(=O)n(C(C)C)c2=O)C(C)C)cc1 [Compound 780]

>  <Meas value>
5

$$$$
>  <Molecule>
CCOP(=O)(Cn1c(=O)on(C(=O)N(c2ccc(F)cc2F)C(C)C)c1=O)OCC [Compound 736]

>  <Meas value>
0

$$$$
>  <Molecule>
CC(C)N(C(=O)n1oc(=O)n(C(C)C2=NOCC2)c1=O)c1ccc(Cl)cc1 (racemic) [Compound 759]

>  <Meas value>
7

$$$$

Could you now consider this next molecule?
Value lookup for B. signalgrass plant response rating; key = CC(C)N(C(=O)n1oc(=O)n(CCCCCl)c1=O)c1ccc(F)cc1 [Compound 712]
8
